Tested on: 598228-144-R-J1-PDC complex spheroids, viability
Test: Anticancer human tumor 598228-144-R-J1-PDC patient-derived serous endometrial adenocarcinoma cell line growth inhibition [CLK]
Conditions: second compound 0.0316 µM; first compound 3.16 µM; hits give low values
Property label: viability, T/C

>>> measured("O=c1[nH]cc(F)c(=O)[nH]1 + CN1CCN(c2cc(C(=O)Nc3cc4cc(-c5cnn(C)c5)ccc4cn3)ccn2)CC1")
"125%"
>>> measured("CC(Nc1ccc2c(c1)OCCn1cc(N3C(=O)OCC3C(F)F)nc1-2)C(N)=O (stereo unspecified) + CNC(=O)c1ccc(Nc2nc(OC3CCCC3)c3c(-c4ccc5nc(C)oc5c4)c[nH]c3n2)c(OC)c1")
"31.5%"
>>> measured("CCCS(=O)(=O)Nc1ccc(F)c(C(=O)c2c[nH]c3ncc(-c4ccc(Cl)cc4)cc23)c1F + CNC(=O)c1ccc(Nc2nc(OC3CCCC3)c3c(-c4ccc5nc(C)oc5c4)c[nH]c3n2)c(OC)c1")
"93.5%"
>>> measured("O=C(c1cc(Cc2n[nH]c(=O)c3ccccc23)ccc1F)N1CCN(C(=O)C2CC2)CC1 + CNC(=O)c1ccc(Nc2nc(OC3CCCC3)c3c(-c4ccc5nc(C)oc5c4)c[nH]c3n2)c(OC)c1")
"124%"
>>> measured("CC1COCCN1c1cc(C2(S(C)(=N)=O)CC2)nc(-c2ccnc3[nH]ccc23)n1 (stereo unspecified) + CNC(=O)c1ccc(Nc2nc(OC3CCCC3)c3c(-c4ccc5nc(C)oc5c4)c[nH]c3n2)c(OC)c1")
"73.3%"
>>> measured("Nc1ccccc1NC(=O)c1ccc(CNC(=O)OCc2cccnc2)cc1 + CN1CCN(c2cc(C(=O)Nc3cc4cc(-c5cnn(C)c5)ccc4cn3)ccn2)CC1")
"32.4%"

###

Tested on: 598228-144-R-J1-PDC complex spheroids, viability
Test: Anticancer human tumor 598228-144-R-J1-PDC cell line growth inhibition [CLK];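 further: spheroids exposed to compounds for seven days before readout; 100% = DMSO vehicle control wells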
Settings: second compound 1 µM; first compound 0.03 µM; hits give low values
Property label: viability, T/C (%)

>>> measured("CC(C)CC(NC(=O)C(Cc1ccccc1)NC(=O)c1cnccn1)B(O)O (stereo unspecified) + CN1CCN(c2cc(C(=O)Nc3cc4cc(-c5cnn(C)c5)ccc4cn3)ccn2)CC1")
0.23
>>> measured("NC(=O)C(=Cn1cnc(-c2cc(C(F)(F)F)cc(C(F)(F)F)c2)n1)c1cncnc1 + CN1CCN(c2cc(C(=O)Nc3cc4cc(-c5cnn(C)c5)ccc4cn3)ccn2)CC1")
0.85
>>> measured("C=CC(=O)Nc1cc(Nc2nccc(-c3cn(C)c4ccccc34)n2)c(OC)cc1N(C)CCN(C)C + CNC(=O)c1ccc(Nc2nc(OC3CCCC3)c3c(-c4ccc5nc(C)oc5c4)c[nH]c3n2)c(OC)c1")
99
>>> measured("NC(=O)C(=Cn1cnc(-c2cc(C(F)(F)F)cc(C(F)(F)F)c2)n1)c1cncnc1 + CNC(=O)c1ccc(Nc2nc(OC3CCCC3)c3c(-c4ccc5nc(C)oc5c4)c[nH]c3n2)c(OC)c1")
97.3
>>> measured("CC(C)CC(NC(=O)C(Cc1ccccc1)NC(=O)c1cnccn1)B(O)O (stereo unspecified) + CNC(=O)c1ccc(Nc2nc(OC3CCCC3)c3c(-c4ccc5nc(C)oc5c4)c[nH]c3n2)c(OC)c1")
0.56
>>> measured("C=CC(=O)Nc1cc(Nc2nccc(-c3cn(C)c4ccccc34)n2)c(OC)cc1N(C)CCN(C)C + CN1CCN(c2cc(C(=O)Nc3cc4cc(-c5cnn(C)c5)ccc4cn3)ccn2)CC1")
1.51
